Each entry below lists one item and its recorded pIC50 value.
tested.on: polymerase of hepatitis B virus (HBV pol) (Hepatitis B virus genotype D subtype ayw, UniProt P03156)
Sequence (P03156 whole entry): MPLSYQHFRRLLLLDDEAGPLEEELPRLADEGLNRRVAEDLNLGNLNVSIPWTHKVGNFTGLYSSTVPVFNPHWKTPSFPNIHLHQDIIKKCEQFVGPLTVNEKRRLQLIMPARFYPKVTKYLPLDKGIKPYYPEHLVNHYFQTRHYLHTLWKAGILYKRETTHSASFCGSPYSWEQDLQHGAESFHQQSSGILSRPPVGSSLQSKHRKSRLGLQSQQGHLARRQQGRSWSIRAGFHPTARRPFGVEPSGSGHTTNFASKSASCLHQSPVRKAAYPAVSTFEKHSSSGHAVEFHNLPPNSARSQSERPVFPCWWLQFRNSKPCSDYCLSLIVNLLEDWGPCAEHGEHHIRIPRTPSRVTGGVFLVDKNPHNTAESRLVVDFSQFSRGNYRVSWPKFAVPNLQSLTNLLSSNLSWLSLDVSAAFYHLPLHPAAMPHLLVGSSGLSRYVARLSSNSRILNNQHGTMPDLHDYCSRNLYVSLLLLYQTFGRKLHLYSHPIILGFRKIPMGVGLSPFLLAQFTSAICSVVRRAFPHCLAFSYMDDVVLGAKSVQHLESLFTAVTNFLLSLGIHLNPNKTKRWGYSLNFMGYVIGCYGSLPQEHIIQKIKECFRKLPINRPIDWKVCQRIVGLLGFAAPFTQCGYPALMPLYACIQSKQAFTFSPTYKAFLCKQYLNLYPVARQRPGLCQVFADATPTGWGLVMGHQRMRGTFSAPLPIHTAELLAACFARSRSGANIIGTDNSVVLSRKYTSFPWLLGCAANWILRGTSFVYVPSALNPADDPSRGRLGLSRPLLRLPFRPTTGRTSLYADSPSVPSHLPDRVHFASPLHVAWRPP
Note on units: pIC50 is unitless, being -log10 of a concentration expressed in mol/L.

O=C(O)C(O)=CC(=O)c1ccc(Cc2ccccc2)s1 [Example 202] = 5.05

// Cc1sc(-c2ccccc2)cc1C(=O)C=C(O)C(=O)O [Example 225] : pIC50 value = 5.40

// O=C(O)C(O)=CC(=O)c1ccc(Cc2ccc(F)cc2)s1 [Example 206] : pIC50 value = 5.70

// O=C(O)C(O)=CC(=O)c1ccc(Cc2cccc(F)c2)s1 [Example 205] : pIC50 value = 5.48

// O=C(O)C(O)=CC(=O)c1ccc(-c2ccccc2)s1 [Example 196] : pIC50 value = 5.05

----------
Each entry below lists one item and its recorded pIC50 value.
tested.on: reverse transcriptase of HIV (HIV-1 RT) (Human immunodeficiency virus type 1 group M subtype B, UniProt P03366)
Note on units: pIC50 is unitless, being -log10 of a concentration expressed in mol/L.

Some entries whose results are on file:
O=C(O)C(O)=CC(=O)c1cccc(NS(=O)(=O)c2c(Cl)cccc2Cl)c1 = 4.10
O=C(O)C(O)=CC(=O)C12CC3CC(CC(C3)C1)C2 = 4.57
N#Cc1c(Cl)cc(Cl)cc1COc1cccc(C(=O)C=C(O)C(=O)O)c1 = 4.00

// COc1cc(C)c(C#N)c(COc2cccc(C(=O)C=C(O)C(=O)O)c2)c1 : pIC50 value = 4.10

// Cc1cccc(C(=O)C=C(O)C(=O)O)c1 : pIC50 value = 4.11

// O=C(O)C(O)=CC(=O)c1cccc(NS(=O)(=O)c2cccc3ccccc23)c1 : pIC50 value = 4.46

----------
tested.on: HCV RdRp (NS5B RNA-dependent RNA polymerase) (Hepatitis C virus genotype 1b, UniProt P26663)
Construct: The HCV NS5B protein is the viral RdRp; made in house; host or cells: insect cells infected with recombinant baculovirus
Sequence (P26663 2420-3010): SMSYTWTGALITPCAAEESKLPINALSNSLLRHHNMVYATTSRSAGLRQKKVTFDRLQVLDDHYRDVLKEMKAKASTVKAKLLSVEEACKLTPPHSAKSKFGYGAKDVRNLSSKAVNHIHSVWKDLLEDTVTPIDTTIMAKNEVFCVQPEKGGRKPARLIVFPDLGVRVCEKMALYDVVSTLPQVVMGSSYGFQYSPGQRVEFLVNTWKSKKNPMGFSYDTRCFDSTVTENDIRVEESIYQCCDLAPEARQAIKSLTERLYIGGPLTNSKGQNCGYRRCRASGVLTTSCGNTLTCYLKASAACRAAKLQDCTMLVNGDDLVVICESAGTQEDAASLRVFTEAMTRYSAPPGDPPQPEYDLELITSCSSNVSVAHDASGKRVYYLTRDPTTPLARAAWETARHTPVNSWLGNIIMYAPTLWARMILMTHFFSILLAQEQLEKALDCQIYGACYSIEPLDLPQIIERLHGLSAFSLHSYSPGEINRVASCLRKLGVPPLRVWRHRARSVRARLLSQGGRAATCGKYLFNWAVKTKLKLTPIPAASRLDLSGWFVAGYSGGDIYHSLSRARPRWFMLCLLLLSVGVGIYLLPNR
assay: Inhibition of hepatitis C virus RdRp (poly(A)/oligo(U), [3H]UTP incorporation)
Type: biochemical
measurement.context: Tables I-VIII; 20 nM NS5B, 1 hour at 22° C.; read-out: IC 50 (μM), HCV-polymerase
assay.endpoint: IC50 (µM)
I only need the number, in µM, no unit after it.

CCCOc1ccccc1C(=O)C=C(O)C(=O)O [Example 29] = 3.9
CC(C)(C)OC(=O)c1sccc1COc1cccc(C(=O)C=C(O)C(=O)O)c1 [Example 82] = 19
Cc1ccsc1C(=O)C=C(O)C(=O)O [Example 191] = 10
O=C(O)C(O)=CC(=O)C(c1ccccc1)c1ccccc1 [Example 244] = 77

// O=C(O)C(O)=CC(=O)c1cccc(NS(=O)(=O)c2c(Cl)sc(Cl)c2Br)c1 [Example 130] : IC50 value = 0.14

----------
tested.on: HCV RdRp (NS5B RNA-dependent RNA polymerase) (Hepatitis C virus genotype 1b, UniProt P26663)
Construct: The HCV NS5B protein is the viral RdRp; made in house; host or cells: insect cells infected with recombinant baculovirus
assay: Inhibition of hepatitis C virus RdRp (poly(A)/oligo(U), [3H]UTP incorporation)
Type: biochemical
measurement.context: Tables I-VIII; 20 nM NS5B, 1 hour at 22° C.; read-out: IC 50 (μM), HCV-polymerase
// assign yes (1) if IC50 falls strictly below 8 µM, else no (0) (ties count as no (0))

These recorded examples may help you get a feel for the data.
O=C(O)C(O)=CC(=O)c1cccc(NS(=O)(=O)c2cc(Cl)cc(Cl)c2)c1 = yes (1)
O=C(O)C(O)=CC(=O)c1cccc(Cn2nc3ccccc3n2)c1 = no (0)
O=C(O)C(O)=CC(=O)c1ccccc1N(Cc1ccccc1)Cc1ccccc1 = no (0)
O=C(O)C(O)=CC(=O)c1cccc(OCCc2ccccc2)c1 = yes (1)
O=C(O)C(O)=CC(=O)c1cccc(N(Cc2ccccc2)Cc2ccccc2)c1 = no (0)

[Q] I wonder whether O=C(O)C(O)=CC(=O)c1cccn1CC1CCCC1 has IC50 below 8 µM. Can you tell?
[A] no (0)

[Q] I wonder whether Cc1ccccc1COc1cccc(C(=O)C=C(O)C(=O)O)c1 has IC50 below 8 µM. Can you tell?
[A] yes (1)

[Q] I wonder whether CCC(C)C(=O)/C=C(\O)C(=O)O (stereo not shown) has IC50 below 8 µM. Can you tell?
[A] no (0)

[Q] I wonder whether O=C(O)COc1cccc(C(=O)C=C(O)C(=O)O)c1 has IC50 below 8 µM. Can you tell?
[A] no (0)

----------
tested.on: HCV RdRp (NS5B RNA-dependent RNA polymerase) (Hepatitis C virus genotype 1b, UniProt P26663)
Construct: The HCV NS5B protein is the viral RdRp; made in house; host or cells: insect cells infected with recombinant baculovirus
assay: Inhibition of hepatitis C virus RdRp (poly(A)/oligo(U), [3H]UTP incorporation)
Assay type: biochemical
measurement.context: Tables I-VIII; 20 nM NS5B, 1 hour at 22° C.; read-out: IC 50 (μM), HCV-polymerase
Each entry below lists one item and its recorded IC50 value.
I only need the number, in µM, no unit after it.

Some entries whose results are on file:
O=C(O)C(O)=CC(=O)c1ccsc1Cc1ccccc1Cl [Example 233] = 9.2
N#Cc1ccc(Cn2cccc2C(=O)C=C(O)C(=O)O)cc1 [Example 183] = 32
O=C(O)C(O)=CC(=O)c1cccc(Cc2cccc(Br)c2)c1 [Example 48] = 22
O=C(O)C(O)=CC(=O)c1cccn1Cc1ccc(O)cc1 [Example 179] = 12.8

Now examine the next entry.
// N#CCCCn1cccc1C(=O)C=C(O)C(=O)O [Example 173] : IC50 value = 21

----------
tested.on: HCV RdRp (NS5B RNA-dependent RNA polymerase) (Hepatitis C virus genotype 1b, UniProt P26663)
Construct: The HCV NS5B protein is the viral RdRp; made in house; host or cells: insect cells infected with recombinant baculovirus
assay: Inhibition of hepatitis C virus RdRp (poly(A)/oligo(U), [3H]UTP incorporation)
Type: biochemical
measurement.context: Tables I-VIII; 20 nM NS5B, 1 hour at 22° C.; read-out: IC 50 (μM), HCV-polymerase
Procedure: In initial tests, the compounds were tested to see if they were effective as inhibitors of the RNA-dependent RNA polymerase (RdRp) of hepatitis C virus (HCV). […] WO96/37619 describes the production of recombinant HCV RdRp from insect cells infected with recombinant baculovirus encoding the enzyme. […] Incorporation of tritiated UTP is quantified by measuring acid-insoluble radioactivity. […] Incorporation of radioactive UMP was measured as follows. […]
Range-based classes on measured IC50: low class: < 10 µM; middle class: ≥ 10 µM and < 30 µM; high class: ≥ 30 µM

[Q] Looking at N#Cc1cccc(COc2ccccc2C(=O)C=C(O)C(=O)O)c1 [Example 26] , which class would you pick?
[A] middle class

[Q] Looking at Cc1ccc(C(=O)CC(=O)C(=O)O)o1 [Example 217] , which class would you pick?
[A] high class

[Q] Looking at O=C(O)C(O)=CC(=O)c1cccn1Cc1ccc(F)cc1 [Example 180] , which class would you pick?
[A] high class

[Q] Looking at O=C(O)C(O)=CC(=O)c1ccc(F)cc1 [Example 163] , which class would you pick?
[A] middle class

[Q] Looking at O=C(O)C(O)=CC(=O)C1(c2ccccc2)CCN(C(=O)N(c2ccccc2)c2ccccc2)CC1 [Example 249] , which class would you pick?
[A] high class

[Q] Looking at C=CCN(CC=C)c1ccc(C(=O)C=C(O)C(=O)O)s1 [Example 203] , which class would you pick?
[A] middle class

[Q] Looking at N#Cc1cccc(COc2cccc(C(=O)C=C(O)C(=O)O)c2)c1 [Example 28] , which class would you pick?
[A] low class

[Q] Looking at O=C(O)C(O)=CC(=O)c1cccc(NS(=O)(=O)c2ccc(C(F)(F)F)cc2Cl)c1 [Example 115] , which class would you pick?
[A] low class

[Q] Looking at Cc1cccc(COc2cccc(C(=O)C=C(O)C(=O)O)c2)c1F [Example 86] , which class would you pick?
[A] low class

[Q] Looking at Cc1ccc(S(=O)(=O)Nc2cccc(C(=O)C=C(O)C(=O)O)c2)cc1Cl [Example 137] , which class would you pick?
[A] low class

----------
tested.on: UniProt P03366
// assign Criterion met if IC50 falls strictly below 60 µM, else Criterion not met (ties count as Criterion not met)

O=C(O)C(O)=CC(=O)c1ccccc1 = Criterion not met
N#Cc1ccccc1OCc1cccc(C(=O)C=C(O)C(=O)O)c1 = Criterion not met
O=C(O)C(O)=CC(=O)c1ccccc1OCc1ccccc1 = Criterion met
O=C(O)C(O)=CC(=O)c1cccc(OCc2ccccc2)c1 = Criterion not met
N#CCCCOc1ccccc1C(=O)C=C(O)C(=O)O = Criterion met

[Q] I wonder whether O=C(O)C(O)=CC(=O)c1cc(O)cc(OCc2ccccc2)c1 has IC50 below 60 µM. Can you tell?
[A] Criterion not met

[Q] I wonder whether O=C(O)C(O)=CC(=O)c1cccc(OCCc2ccccc2)c1 has IC50 below 60 µM. Can you tell?
[A] Criterion met

[Q] I wonder whether Cc1sc(-c2ccccc2)cc1C(=O)C=C(O)C(=O)O has IC50 below 60 µM. Can you tell?
[A] Criterion not met

[Q] I wonder whether O=C(O)C(O)=CC(=O)c1ccccc1Cc1ccc(F)cc1 has IC50 below 60 µM. Can you tell?
[A] Criterion met

These entries and their values trace back to patent US7022736B2.
